Item-by-item account of Kd
- TARGET UNDER TEST: T1, 14-3-3τ (human, UniProt P27348 1-245)
- T1 chain: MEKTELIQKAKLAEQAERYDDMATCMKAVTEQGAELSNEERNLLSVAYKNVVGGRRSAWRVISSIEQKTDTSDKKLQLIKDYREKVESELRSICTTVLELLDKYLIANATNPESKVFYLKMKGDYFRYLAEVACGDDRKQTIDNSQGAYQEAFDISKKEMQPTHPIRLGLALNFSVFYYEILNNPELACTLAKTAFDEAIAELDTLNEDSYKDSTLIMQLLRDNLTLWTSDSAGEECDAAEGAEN
- ASSAY EXPLANATION: FP
Non-standard residues stand in square brackets, D forms with d. No end group written: not given here. pS = N[C@@H](COP(=O)(O)O)C(=O)O
ATTRIBUTE MEASURED: Kd (nM)

BINDER	RESULT VALUE
SFTDHQRLMKRRK[pS]V (also: fluorescein label, position not given here) [TASK-3 pS373 C-terminal fluorescent peptide (last 15 amino acids)]	220
SFTDHQRLMKRRK[pS] (peptide, UniProt Q9NPC2 360-374, looked up, also: fluorescein label, position not given here, TASK-3 (KCNK9), human, C-terminal peptide with phosphorylated S373 but lacking the C-terminal valine V374; ends at pS373; source: synthetic peptide, bought: Peps4Life Sciences) [TASK-3 pS373 ΔV374 C-terminal fluorescent peptide]	2400

The reported numbers originate from paper PMC4760375.
